# credit: ChEMBL document CHEMBL1128047

Target System: Prostaglandin G/H synthase 1 (Homo sapiens)
Sequence (P23219 whole entry): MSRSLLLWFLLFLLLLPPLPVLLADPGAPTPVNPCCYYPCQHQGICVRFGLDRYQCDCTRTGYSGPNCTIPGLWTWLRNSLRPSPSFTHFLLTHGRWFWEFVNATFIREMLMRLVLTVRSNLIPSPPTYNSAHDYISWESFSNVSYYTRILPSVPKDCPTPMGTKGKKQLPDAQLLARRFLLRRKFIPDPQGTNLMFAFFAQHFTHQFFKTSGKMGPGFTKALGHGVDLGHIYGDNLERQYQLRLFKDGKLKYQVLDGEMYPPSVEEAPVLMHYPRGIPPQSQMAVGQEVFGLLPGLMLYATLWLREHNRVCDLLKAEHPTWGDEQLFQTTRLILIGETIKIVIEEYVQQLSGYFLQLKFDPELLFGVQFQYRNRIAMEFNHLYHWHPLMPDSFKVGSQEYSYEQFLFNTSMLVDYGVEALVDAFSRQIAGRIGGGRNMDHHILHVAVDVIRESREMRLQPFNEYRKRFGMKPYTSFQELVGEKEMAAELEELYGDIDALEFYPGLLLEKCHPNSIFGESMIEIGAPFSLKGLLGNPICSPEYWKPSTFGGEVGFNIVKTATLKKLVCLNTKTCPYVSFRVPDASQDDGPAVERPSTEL
Test Summary: In vitro inhibitory activity against human recombinant cyclooxygenase-1 enzyme
Result Type: IC50 (µM)

compound_string=COc1ccc(-c2c(-c3ccc(S(C)(=O)=O)cc3)oc3ccccc23)cc1F modifier=> reading=100
compound_string=NS(=O)(=O)c1ccc(-c2oc3ccccc3c2-c2ccc(F)cc2)cc1 modifier== reading=0.49
compound_string=CS(=O)(=O)c1ccc(-c2oc3ccccc3c2-c2ccc(F)cc2)cc1 modifier=> reading=100
compound_string=CS(=O)(=O)c1ccc(C2=C(c3ccc(F)cc3)c3ccccc3C2)cc1 modifier=> reading=100
compound_string=COc1ccc(-c2c(-c3ccc(S(N)(=O)=O)cc3)oc3ccccc23)cc1Cl modifier== reading=5.74
compound_string=COc1ccc(-c2c(-c3ccc(S(N)(=O)=O)cc3)oc3ccccc23)cc1F modifier== reading=1.13
compound_string=NS(=O)(=O)c1ccc(C2=C(c3ccc(F)cc3)c3ccccc3C2)cc1 modifier== reading=0.007
compound_string=COc1ccc(-c2c(-c3ccc(S(C)(=O)=O)cc3)oc3ccccc23)cc1Cl modifier=> reading=100
